Origin of measurements: patent US6150385A

target: HCMV polymerase (Human cytomegalovirus, UniProt P08546); construct: made in house; host or cells: SF-9 insect cells infected with recombinant baculovirus; assay: HCMV polymerase assay (scintillation proximity assay); format: biochemical; details: percentage of inhibition at 25 μM concentration in CMV polymerase assay
Sequence (P08546 whole entry): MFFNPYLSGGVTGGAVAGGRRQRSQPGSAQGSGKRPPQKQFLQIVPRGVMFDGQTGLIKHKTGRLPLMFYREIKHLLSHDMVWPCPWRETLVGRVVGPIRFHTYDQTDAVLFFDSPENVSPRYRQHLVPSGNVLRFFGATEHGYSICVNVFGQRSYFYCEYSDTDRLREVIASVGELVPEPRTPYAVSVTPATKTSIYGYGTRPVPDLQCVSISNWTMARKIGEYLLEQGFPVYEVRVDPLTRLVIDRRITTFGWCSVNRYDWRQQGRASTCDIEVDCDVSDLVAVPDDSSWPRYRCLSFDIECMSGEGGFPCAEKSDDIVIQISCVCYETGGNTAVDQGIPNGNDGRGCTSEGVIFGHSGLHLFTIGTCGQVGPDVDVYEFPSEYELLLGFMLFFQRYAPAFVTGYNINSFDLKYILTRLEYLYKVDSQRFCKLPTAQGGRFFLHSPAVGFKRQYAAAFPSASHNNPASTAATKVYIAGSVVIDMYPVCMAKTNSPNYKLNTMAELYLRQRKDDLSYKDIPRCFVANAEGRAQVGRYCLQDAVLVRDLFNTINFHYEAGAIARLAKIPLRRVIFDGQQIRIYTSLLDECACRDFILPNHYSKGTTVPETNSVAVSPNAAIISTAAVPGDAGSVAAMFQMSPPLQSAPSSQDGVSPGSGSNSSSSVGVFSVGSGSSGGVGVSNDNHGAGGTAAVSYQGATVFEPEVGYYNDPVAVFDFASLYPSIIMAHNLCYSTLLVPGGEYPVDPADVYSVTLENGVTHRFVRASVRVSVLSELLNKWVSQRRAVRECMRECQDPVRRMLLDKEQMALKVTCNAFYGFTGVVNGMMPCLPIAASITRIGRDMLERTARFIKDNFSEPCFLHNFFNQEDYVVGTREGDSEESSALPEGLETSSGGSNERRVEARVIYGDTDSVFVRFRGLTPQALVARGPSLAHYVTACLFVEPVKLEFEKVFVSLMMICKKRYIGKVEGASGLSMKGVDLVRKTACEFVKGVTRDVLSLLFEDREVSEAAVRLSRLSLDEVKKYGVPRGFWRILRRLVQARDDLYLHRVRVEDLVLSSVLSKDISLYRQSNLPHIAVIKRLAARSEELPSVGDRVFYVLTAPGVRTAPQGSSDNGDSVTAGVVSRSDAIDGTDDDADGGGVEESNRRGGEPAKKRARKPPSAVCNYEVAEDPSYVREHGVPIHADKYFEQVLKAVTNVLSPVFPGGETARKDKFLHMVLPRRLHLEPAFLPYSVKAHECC
// reported inhibition at 25 µM for each item listed
quantity measured: inhibition at 25 µM (%)

molecule=N#CCCNc1nnc(NC(=O)c2c(Cl)cccc2Cl)s1 numeric_result=54.8
molecule=CCCCCCCC/C=C/CCCCCCCC(=O)Nc1nnc(NCCN2CCCC2)s1 numeric_result=97.7
molecule=CCCCCCCCCCCNc1nnc(NC(=O)c2ccc([N+](=O)[O-])o2)s1 numeric_result=74.5
molecule=NS(=O)(=O)c1ccc(CCNc2nnc(NC(=O)c3c(Cl)cccc3Cl)s2)cc1 numeric_result=39.6
molecule=CCCCCCCC/C=C/CCCCCCCC(=O)Nc1nnc(NCc2ccc3c(c2)OCO3)s1 numeric_result=77.9
molecule=CCOc1ccc2ccccc2c1C(=O)Nc1nnc(NCC2CC2)s1 numeric_result=49
molecule=O=C(Nc1nnc(NC2CCN(Cc3ccccc3)CC2)s1)c1ccc([N+](=O)[O-])o1 numeric_result=20.8
molecule=CC(C)c1cc(C(C)C)c(C(=O)Nc2nnc(NCCCCc3ccccc3)s2)c(C(C)C)c1 numeric_result=39.6
molecule=O=C(Nc1nnc(NCCCn2ccnc2)s1)c1ccc(I)cc1 numeric_result=32.9
molecule=O=C(Nc1nnc(NCCc2ccccc2)s1)c1ccc(Cl)cc1Cl numeric_result=34.2
molecule=O=C(Nc1nnc(NCCCNC2CCCCC2)s1)c1ccc(Cl)c(Cl)c1 numeric_result=49.7
molecule=O=C(Nc1nnc(NCCNc2ccccc2)s1)c1ccc([N+](=O)[O-])o1 numeric_result=39.2
molecule=CCOc1ccc2ccccc2c1C(=O)Nc1nnc(NC2CCC2)s1 numeric_result=33.8
molecule=O=C(Nc1nnc(NCCCn2ccnc2)s1)c1ccc(Cl)c(Cl)c1 numeric_result=45
molecule=CC(C)(C)OC(=O)CCNc1nnc(NC(=O)/C=C/c2ccccc2)s1 numeric_result=60
molecule=CC(C)c1cc(C(C)C)c(C(=O)Nc2nnc(NCCC#N)s2)c(C(C)C)c1 numeric_result=22.8
molecule=COc1ccccc1C(=O)Nc1nnc(NCc2cccc3ccccc23)s1 numeric_result=31.8
molecule=CC(C)c1cc(C(C)C)c(C(=O)Nc2nnc(NCCc3ccc(S(N)(=O)=O)cc3)s2)c(C(C)C)c1 numeric_result=58.3
molecule=O=C(/C=C/c1ccccc1Cl)Nc1nnc(NCC2CC2)s1 numeric_result=89.9
molecule=O=C(Nc1nnc(NCC2CC2)s1)c1ccc(I)cc1 numeric_result=20
molecule=NS(=O)(=O)c1ccc(CNc2nnc(NC(=O)c3ccc(C(F)(F)F)cc3)s2)cc1 numeric_result=25.9
molecule=O=C(/C=C/c1ccccc1)Nc1nnc(NCCc2c[nH]cn2)s1 numeric_result=44.1
molecule=CCOc1ccc2ccccc2c1C(=O)Nc1nnc(NCC(C)(C)C)s1 numeric_result=42.1
molecule="O=C(Nc1nnc(NC2CCc3ccccc32)s1)c1ccc([N+](=O)[O-])o1 (centres unmarked)" numeric_result=25.2
molecule=O=C(/C=C/c1ccccc1Cl)Nc1nnc(NCCNc2ccccc2)s1 numeric_result=35.4
molecule=N#Cc1ccc(C(=O)Nc2nnc(NCCC(c3ccccc3)c3ccccc3)s2)cc1 numeric_result=82.3

====

target: HCMV polymerase (Human cytomegalovirus, UniProt P08546); construct: made in house; host or cells: SF-9 insect cells infected with recombinant baculovirus; experiment: HCMV polymerase assay (scintillation proximity assay); type: biochemical; details: percentage of inhibition at 25 μM concentration in CMV polymerase assay
// values below are reported inhibition at 25 µM
quantity measured: inhibition at 25 µM (%)

compound="NS(=O)(=O)c1ccc(CNc2nnc(NC(=O)c3cc4ccccc4s3)s2)cc1 [compound 223]" target="HCMV polymerase (Human cytomegalovirus, UniProt P08546)" quantity_measured="inhibition at 25 µM" numeric_result=43.1
compound="O=C(/C=C/c1ccccc1Cl)Nc1nnc(NCCN2CCCC2)s1 [compound 397]" target="HCMV polymerase (Human cytomegalovirus, UniProt P08546)" quantity_measured="inhibition at 25 µM" numeric_result=25.9
compound="O=C(Nc1nnc(NCCCCc2ccccc2)s1)c1ccc(C(F)(F)F)cc1 [compound 138]" target="HCMV polymerase (Human cytomegalovirus, UniProt P08546)" quantity_measured="inhibition at 25 µM" numeric_result=56.2
compound="CCCCC(CC)CNc1nnc(NC(=O)c2ccc3c(c2)C(=O)OC3=O)s1 (centres unmarked) [compound 116]" target="HCMV polymerase (Human cytomegalovirus, UniProt P08546)" quantity_measured="inhibition at 25 µM" numeric_result=61.9
compound="CCCCCCCC/C=C/CCCCCCCC(=O)Nc1nnc(NC2CCCCCC2)s1 [compound 31]" target="HCMV polymerase (Human cytomegalovirus, UniProt P08546)" quantity_measured="inhibition at 25 µM" numeric_result=91.8
compound="O=C(/C=C/c1ccccc1)Nc1nnc(NCCC(c2ccccc2)c2ccccc2)s1 [compound 331]" target="HCMV polymerase (Human cytomegalovirus, UniProt P08546)" quantity_measured="inhibition at 25 µM" numeric_result=32.1
compound="O=C(/C=C/c1ccccc1Cl)Nc1nnc(NC2CCN(Cc3ccccc3)CC2)s1 [compound 110]" target="HCMV polymerase (Human cytomegalovirus, UniProt P08546)" quantity_measured="inhibition at 25 µM" numeric_result=62.9
compound="CCOc1ccc2ccccc2c1C(=O)Nc1nnc(NCCc2c[nH]cn2)s1 [compound 89]" target="HCMV polymerase (Human cytomegalovirus, UniProt P08546)" quantity_measured="inhibition at 25 µM" numeric_result=66.3

====

Recorded inhibition at 25 µM by entry
target: HCMV polymerase (Human cytomegalovirus); construct: made in house; host or cells: SF-9 insect cells infected with recombinant baculovirus; assay: HCMV polymerase assay (scintillation proximity assay); assay type: biochemical; details: percentage of inhibition at 25 μM concentration in CMV polymerase assay
quantity measured: inhibition at 25 µM (%)

compound="O=C(CCCCCl)Nc1nnc(NCC2CCCCC2)s1 [compound 315]" numeric_result=33.8
compound="COc1ccccc1C(=O)Nc1nnc(NCC(c2ccccc2)c2ccccc2)s1 [compound 224]" numeric_result=43
compound="O=C(/C=C/c1ccccc1Cl)Nc1nnc(NCCCNC2CCCCC2)s1 [compound 75]" numeric_result=68.8
compound="O=C(Nc1nnc(NCc2cccs2)s1)c1ccc(I)cc1 [compound 425]" numeric_result=23.5
compound="CC(C)(C)CNc1nnc(NC(=O)/C=C/c2ccccc2Cl)s1 [compound 319]" numeric_result=33.5
compound="CCOc1ccc2ccccc2c1C(=O)Nc1nnc(NC2CCCc3ccccc32)s1 (stereo not shown) [compound 93]" numeric_result=66
compound="CCOc1ccc2ccccc2c1C(=O)Nc1nnc(NC2CCc3ccccc32)s1 (stereo not shown) [compound 95]" numeric_result=65.9
compound="NS(=O)(=O)c1ccc(CCNc2nnc(NC(=O)c3ccc(C(F)(F)F)cc3)s2)cc1 [compound 446]" numeric_result=21.8
compound="O=C(Nc1nnc(NCc2ccco2)s1)c1c(Cl)cccc1Cl [compound 174]" numeric_result=49.5
compound="O=C(Nc1nnc(NCc2ccco2)s1)c1ccc(Cl)c(Cl)c1 [compound 247]" numeric_result=40.9
compound="O=C(Nc1nnc(NCc2cccc3ccccc23)s1)c1ccc(I)cc1 [compound 402]" numeric_result=25.5
compound="CCCCCCCC/C=C/CCCCCCCC(=O)Nc1nnc(NC[C@@H]2CCC3CC2C3(C)C)s1 (stereo partly shown) [compound 166]" numeric_result=51.1
compound="O=C(Nc1nnc(NCc2ccc3c(c2)OCO3)s1)c1ccc2c(c1)C(=O)OC2=O [compound 20]" numeric_result=97.7
compound="CCCCCCCC/C=C/CCCCCCCC(=O)Nc1nnc(NCCCCCCCCCCC)s1 [compound 51]" numeric_result=79.5
compound="CCOc1ccc2ccccc2c1C(=O)Nc1nnc(NCc2ccc(S(N)(=O)=O)cc2)s1 [compound 26]" numeric_result=93.1
compound="CCCCCCCCCCCNc1nnc(NC(=O)c2ccc(C#N)cc2)s1 [compound 65]" numeric_result=72.2
compound="O=C(Nc1nnc(NC2CCCCCC2)s1)c1ccc(Cl)c(Cl)c1 [compound 418]" numeric_result=24.4
compound="O=C(Nc1nnc(NCc2ccc(F)cc2)s1)c1cccc([N+](=O)[O-])c1 [compound 302]" numeric_result=34.8
compound="CCCCCCCC/C=C/CCCCCCCC(=O)Nc1nnc(NCCc2ccccc2)s1 [compound 105]" numeric_result=64.6
compound="O=C(Nc1nnc(NC2CCCCCC2)s1)c1ccc2c(c1)C(=O)OC2=O [compound 29]" numeric_result=92.4
compound="CCCCCCCC/C=C/CCCCCCCC(=O)Nc1nnc(NCCC2CCCN2C)s1 (stereo not shown) [compound 5]" numeric_result=99.9
compound="CCCCCCCCCCCNc1nnc(NC(=O)c2ccc(Cl)c(Cl)c2)s1 [compound 375]" numeric_result=27.9
compound="CCOc1ccc2ccccc2c1C(=O)Nc1nnc(NCCCn2ccnc2)s1 [compound 242]" numeric_result=41.3
compound="O=C(/C=C/c1ccccc1Cl)Nc1nnc(NCc2cccc3ccccc23)s1 [compound 443]" numeric_result=22.1
compound="NS(=O)(=O)c1ccc(CNc2nnc(NC(=O)c3ccc(I)cc3)s2)cc1 [compound 57]" numeric_result=76.3
compound="CCOc1ccc2ccccc2c1C(=O)Nc1nnc(NCCc2ccc(S(N)(=O)=O)cc2)s1 [compound 328]" numeric_result=32.4
compound="CC(C)c1cc(C(C)C)c(C(=O)Nc2nnc(NCCC(c3ccccc3)c3ccccc3)s2)c(C(C)C)c1 [compound 299]" numeric_result=34.9
compound="O=C(Nc1nnc(NCCCNC2CCCCC2)s1)c1ccc(I)cc1 [compound 212]" numeric_result=44.2
